# System name: ERK5 (Homo sapiens)
# Construct: made in house
# Sequence (Q13164 whole entry): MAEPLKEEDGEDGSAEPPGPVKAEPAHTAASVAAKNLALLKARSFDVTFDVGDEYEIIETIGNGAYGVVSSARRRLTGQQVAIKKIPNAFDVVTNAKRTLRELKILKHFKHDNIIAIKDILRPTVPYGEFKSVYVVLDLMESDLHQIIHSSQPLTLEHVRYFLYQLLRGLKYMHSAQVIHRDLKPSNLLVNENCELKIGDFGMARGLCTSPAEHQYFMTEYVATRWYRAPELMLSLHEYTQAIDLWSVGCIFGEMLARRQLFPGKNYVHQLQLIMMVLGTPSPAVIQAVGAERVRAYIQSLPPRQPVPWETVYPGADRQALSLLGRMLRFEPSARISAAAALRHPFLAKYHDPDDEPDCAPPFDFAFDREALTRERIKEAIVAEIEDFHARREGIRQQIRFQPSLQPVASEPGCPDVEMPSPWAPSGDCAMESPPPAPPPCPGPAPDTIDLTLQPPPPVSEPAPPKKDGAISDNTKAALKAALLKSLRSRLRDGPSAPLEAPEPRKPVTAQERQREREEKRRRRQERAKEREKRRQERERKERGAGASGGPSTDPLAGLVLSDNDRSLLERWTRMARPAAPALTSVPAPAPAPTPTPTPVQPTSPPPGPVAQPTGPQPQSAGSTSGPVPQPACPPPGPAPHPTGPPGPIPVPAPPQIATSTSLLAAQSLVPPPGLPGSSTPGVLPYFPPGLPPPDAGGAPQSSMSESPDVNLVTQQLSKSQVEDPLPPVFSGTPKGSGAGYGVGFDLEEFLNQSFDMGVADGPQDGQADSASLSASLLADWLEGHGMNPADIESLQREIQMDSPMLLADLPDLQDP
# Method description: ERK5 IMAP assay (fluorescence polarisation)
# Assay type: biochemical
# Measurement context: average (e.g. geometric mean) where more than one data point; read-out: ERK5 IC50
Reported metric: log10(IC50) (log10 of the value in nM)
Friendly reminder: values = log10 of IC50, unit nM.

Some compounds with recorded log10(IC50):
1) Cc1cccc(F)c1C(=O)c1c[nH]c(C(=O)Nc2ccncc2)c1 = 3.28
2) O=C(NC1CCNCC1)c1cc(C(=O)c2c(F)ccc(F)c2Cl)c[nH]1 = 2.84
3) O=C(Nc1cccnc1)c1cc(C(=O)c2c(F)ccc(Cl)c2Cl)c[nH]1 = 2.42
4) CCc1ccncc1NC(=O)c1cc(C(=O)c2c(Cl)ccc(Cl)c2F)c[nH]1 = 3.22

Next compound, please.
// field: log10(IC50); key: O=C(Nc1ccnc(Cl)n1)c1cc(C(=O)c2c(F)cccc2Cl)c[nH]1 ; value = 3.64

Where do the numbers come from? From patent US10344017B2.
